Entries and their combination Emax values follow.
Tested on: A549 (Lung Adenocarcinoma)
Assay: combination Emax (second highest fraction inhibited in the dose matrix, 72 h); higher = more inhibition; extreme values may be limits of the assay
outcomeMeasure: combination Emax

compound | outcomeMeasure | readoutNumber
CS(=O)(=O)CCNCc1ccc(-c2ccc3ncnc(Nc4ccc(OCc5cccc(F)c5)c(Cl)c4)c3c2)o1 [Lapatinib] + C[C@@H](Oc1cc(-c2cnn(C3CCNCC3)c2)cnc1N)c1c(Cl)ccc(F)c1Cl [Crizotinib] (first compound max 10 µM, 7x7, partner max 10 µM) | combination Emax | 0.988
CCN(CCO)CCCOc1ccc2c(Nc3cc(CC(=O)Nc4cccc(F)c4)[nH]n3)ncnc2c1 [AZD2811] + C=CCn1c(=O)c2cnc(Nc3ccc(N4CCN(C)CC4)cc3)nc2n1-c1cccc(C(C)(C)O)n1 [AZD1775] (first compound max 1 µM, partner max 1 µM) | combination Emax | 0.599
COc1nnc2ccc(N3CCC(c4ccc(OCCN5CCN(C)C(=O)[C@H]5C)cc4)CC3)nn12 [AZD5153] + C=CCn1c(=O)c2cnc(Nc3ccc(N4CCN(C)CC4)cc3)nc2n1-c1cccc(C(C)(C)O)n1 [AZD1775] (first compound max 1 µM, partner max 1 µM) | combination Emax | 0.885
Cc1c2c(nn1C)CSCc1cc(n(C)n1)CSc1cc(c3ccccc3c1)OCCCc1c(C(=O)O)n(C)c3c-2c(Cl)ccc13 [AZD5991] + C=CCn1c(=O)c2cnc(Nc3ccc(N4CCN(C)CC4)cc3)nc2n1-c1cccc(C(C)(C)O)n1 [AZD1775] (first compound max 1 µM, partner max 1 µM) | combination Emax | 0.425
COc1nnc2ccc(N3CCC(c4ccc(OCCN5CCN(C)C(=O)[C@H]5C)cc4)CC3)nn12 [AZD5153] + Cc1c2c(nn1C)CSCc1cc(n(C)n1)CSc1cc(c3ccccc3c1)OCCCc1c(C(=O)O)n(C)c3c-2c(Cl)ccc13 [AZD5991] (first compound max 1 µM, 7x7, partner max 1 µM) | combination Emax | 0.821
Cn1cnc2c(F)c(Nc3ccc(Br)cc3Cl)c(C(=O)NOCCO)cc21 [Selumetinib] + C=CCn1c(=O)c2cnc(Nc3ccc(N4CCN(C)CC4)cc3)nc2n1-c1cccc(C(C)(C)O)n1 [AZD1775] (first compound max 10 µM, partner max 1 µM) | combination Emax | 0.779
CC1(C)CCC(CN2CCN(c3ccc(C(=O)NS(=O)(=O)c4ccc(NCC5CCOCC5)c([N+](=O)[O-])c4)c(Oc4cnc5[nH]ccc5c4)c3)CC2)=C(c2ccc(Cl)cc2)C1 [Venetoclax] + COc1cc(Nc2ncc3c(n2)-c2ccc(Cl)cc2C(c2c(F)cccc2OC)=NC3)ccc1C(=O)O [Alisertib] (first compound max 1 µM, 7x7, partner max 10 µM) | combination Emax | 0.721
COc1cccc(OCCCN)c1-c1cc(Nc2cnc(C#N)cn2)n[nH]1 [Prexasertib] + C=CCn1c(=O)c2cnc(Nc3ccc(N4CCN(C)CC4)cc3)nc2n1-c1cccc(C(C)(C)O)n1 [AZD1775] (first compound max 1 µM, partner max 1 µM) | combination Emax | 0.776
Cc1cc2ncnn2cc1Nc1ncc2c(n1)n(C1CCOCC1)c(=O)n2C [AZD7648] + C=CCn1c(=O)c2cnc(Nc3ccc(N4CCN(C)CC4)cc3)nc2n1-c1cccc(C(C)(C)O)n1 [AZD1775] (first compound max 10 µM, partner max 1 µM) | combination Emax | 0.578
CN(C)CCCOc1ccc(-c2ccc3ncc4c(c3c2)n(C2CCOCC2)c(=O)n4C)cn1 [AZD0156] + C=CCn1c(=O)c2cnc(Nc3ccc(N4CCN(C)CC4)cc3)nc2n1-c1cccc(C(C)(C)O)n1 [AZD1775] (first compound max 1 µM, partner max 1 µM) | combination Emax | 0.317
COc1cccc(OCCCN)c1-c1cc(Nc2cnc(C#N)cn2)n[nH]1 [Prexasertib] + C[C@@H]1COCCN1C2=NC(=NC(=C2)C3(CC3)[S@](=N)(=O)C)C4=C5C=CNC5=NC=C4 [AZD6738] (first compound max 1 µM, 7x7, partner max 10 µM) | combination Emax | 0.864
CC(=O)c1c(C)c2cnc(Nc3ccc(N4CCNCC4)cn3)nc2n(C2CCCC2)c1=O [Palbociclib] + CC1(C)CCC(CN2CCN(c3ccc(C(=O)NS(=O)(=O)c4ccc(NCC5CCOCC5)c([N+](=O)[O-])c4)c(Oc4cnc5[nH]ccc5c4)c3)CC2)=C(c2ccc(Cl)cc2)C1 [Venetoclax] (first compound max 10 µM, 7x7, partner max 1 µM) | combination Emax | 0.64
C[C@@H]1COCCN1c1cc(C2([S@](C)(=N)=O)CC2)nc(-c2ccnc3[nH]ccc23)n1 [AZD6738] + O=C(c1cc(Cc2n[nH]c(=O)c3ccccc23)ccc1F)N1CCN(C(=O)C2CC2)CC1 [Olaparib] (first compound max 10 µM, 7x7, partner max 10 µM) | combination Emax | 0.809
Cc1cc2ncnn2cc1Nc1ncc2c(n1)n(C1CCOCC1)c(=O)n2C [AZD7648] + O=C(c1cc(Cc2n[nH]c(=O)c3ccccc23)ccc1F)N1CCN(C(=O)C2CC2)CC1 [Olaparib] (first compound max 10 µM, 7x7, partner max 10 µM) | combination Emax | 0.59
